# pIC50 per entry for Acetylcholinesterase (Homo sapiens, UniProt P22303)
Quick note: pIC50 means taking -log10 of the concentration in moles per liter.

In [3]: df
Out[3]:
                            given_smiles  number
0  O=c1c2ccccc2ccn1CCC1CCN(Cc2ccccc2)CC1    5.96

Q: Report pIC50 on Acetylcholinesterase (Homo sapiens, UniProt P22303) for this entry: NCCCCCCCNc1c2c(nc3ccccc13)CCCC2
Sequence (P22303 whole entry): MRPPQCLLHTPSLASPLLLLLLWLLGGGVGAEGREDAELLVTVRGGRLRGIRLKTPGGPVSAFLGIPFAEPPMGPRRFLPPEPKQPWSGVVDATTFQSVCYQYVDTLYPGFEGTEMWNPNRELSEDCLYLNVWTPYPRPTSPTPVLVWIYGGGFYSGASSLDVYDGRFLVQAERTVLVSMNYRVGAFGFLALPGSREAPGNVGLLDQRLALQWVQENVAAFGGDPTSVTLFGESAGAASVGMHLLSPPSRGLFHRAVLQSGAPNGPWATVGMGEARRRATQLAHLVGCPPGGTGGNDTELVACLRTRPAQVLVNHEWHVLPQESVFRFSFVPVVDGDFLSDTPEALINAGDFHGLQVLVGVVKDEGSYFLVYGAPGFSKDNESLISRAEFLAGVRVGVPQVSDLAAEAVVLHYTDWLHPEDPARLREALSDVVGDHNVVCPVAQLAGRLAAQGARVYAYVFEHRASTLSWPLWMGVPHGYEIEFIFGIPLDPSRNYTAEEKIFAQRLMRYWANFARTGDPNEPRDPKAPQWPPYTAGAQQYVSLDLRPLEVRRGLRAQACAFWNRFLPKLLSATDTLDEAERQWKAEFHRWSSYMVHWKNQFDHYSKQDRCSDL
A: 6.50

Q: Give pIC50 only, for Nc1c2c(nc3ccccc13)-c1ccccc1NCC2 , using Acetylcholinesterase (Homo sapiens, UniProt P22303) data.
A: 4.16

Q: Provide pIC50, system Acetylcholinesterase (Homo sapiens, UniProt P22303), entry c1ccc2c(NCCCCCCNc3c4c(nc5ncccc35)CCCCC4)c3c(nc2c1)CCCCC3
A: 8.60
